// values below are reported RP-LC retention time
Assay: gradient 5% acetonitrile 3 min, to 50% in 2 min, to 85% in 15 min, held 3 min, 100 µL/min
Settings: column: Zorbax Extend-C18 2.1 x 50 mm; eluents: water / acetonitrile, 0.1% formic acid

| smiles-repr | RP-LC retention time, s |
| --- | --- |
| CCS(=O)(=O)c1ccc(C(=O)Nc2nnc(Cc3ccc(Cl)s3)o2)cc1 | 735 |
| COc1cc(C(=O)Nc2noc3ncccc23)cc(OC)c1OC | 620 |
| O=C(CC1CCN(S(=O)(=O)c2ccc(Cl)s2)CC1)N1CCCCC1 | 946 |
| COc1ccc(N2CCN(c3cc(SCC(=O)NCc4ccco4)ncn3)CC2)cc1 | 748 |
| CCn1ccc(-c2nc(-c3cccc(-c4csc(C5CC5)n4)c3)no2)n1 | 1220 |
| COc1cc(OC)c(NC(=O)N2CC(c3nc(C(C)C)nn3C)C2)cc1Cl | 695 |
| Cc1noc(-c2ccc(-n3ncc(C(=O)NC4CCCCC4)c3C)nc2)n1 | 737 |
| O=C(Nc1ccc2c(c1)OCCO2)c1noc2c1CCCC2 | 870 |

* * *

Experiment: gradient 5% acetonitrile 3 min, to 50% in 2 min, to 85% in 15 min, held 3 min, 100 µL/min
Conditions: column: Zorbax Extend-C18 2.1 x 50 mm; eluents: water / acetonitrile, 0.1% formic acid
Examples of compounds with documented RP-LC retention time follow.
test-readout: RP-LC retention time

| smiles-repr | measurement |
| --- | --- |
| O=C(Cn1nc(C(=O)N2CCOCC2)c2ccccc21)NCc1ccc(F)cc1 | 715 s |
| O=C(NCC1(CO)CC1)NC(c1ccccc1)c1ccccc1 | 706 s |
| Cc1ccc(C(=O)N2C[C@@H]3C[C@H]2C[C@@H]3NS(=O)(=O)c2cccnc2)cc1F | 716 s |

* * *

Experiment: gradient 5% acetonitrile 3 min, to 50% in 2 min, to 85% in 15 min, held 3 min, 100 µL/min
Conditions: column: Zorbax Extend-C18 2.1 x 50 mm; eluents: water / acetonitrile, 0.1% formic acid
Reported RP-LC retention time values follow for various compounds
test-readout: RP-LC retention time (s)

| smiles-repr | test-readout | measurement |
| --- | --- | --- |
| CC1(CNS(=O)(=O)c2ccc(F)c(F)c2)CCOCC1 | RP-LC retention time | 810 |
| CCOC(=O)c1c(C)[nH]c(CCC(=O)NCCc2cccs2)c1C | RP-LC retention time | 822 |
| COc1ccc2sc(OC3CCN(C(=O)NC(C)C)CC3)nc2c1 | RP-LC retention time | 819 |

* * *

Assay: gradient 5% acetonitrile 3 min, to 50% in 2 min, to 85% in 15 min, held 3 min, 100 µL/min
Conditions: column: Zorbax Extend-C18 2.1 x 50 mm; eluents: water / acetonitrile, 0.1% formic acid
test-readout: RP-LC retention time (s)

| compound | value-unit | measurement |
| --- | --- | --- |
| Cc1ccc(Nc2c(-c3ccc(O)cc3)nc3ccccn23)cc1 | s | 656 |
| O=C(NCCc1ccccc1)C(=O)NCC1OCCc2ccccc21 (configuration not stated) | s | 946 |
| Cc1ccsc1C1C2=C(CC(C)(C)CC2=O)OC2=C1C(=O)CC(C)(C)C2 | s | 1090 |
| CCCn1cc(CCNC(=O)Cc2ccccc2Cl)c2cccnc21 | s | 770 |
| Cc1ccc2c(Nc3ccc(C)c(C)c3)c(C(=O)N3CCOCC3)cnc2n1 | s | 593 |
| Cc1ccc(NC(=O)N2CCc3[nH]cnc3C2c2ccncc2)cc1C (configuration not stated) | s | 582 |
| COCCN1CCC2(CC1)CN(Cc1cccc(F)c1)Cc1ccccc1O2 | s | 629 |
| COc1ccccc1-c1noc(C2CCCN2C(=O)Nc2ccccc2Cl)n1 (configuration not stated) | s | 947 |
| Cc1ccc(NC(=O)Cn2nc(N3CCOCC3)c3ccccc3c2=O)c(Br)c1 | s | 884 |
| CCCNC(=O)C1CCN(c2ccc(SCC(=O)Nc3ccccc3C(=O)OCC)nn2)CC1 | s | 715 |
| CCOC(=O)c1ccc(NS(=O)(=O)N2CCOCC2)cc1 | s | 724 |
| COc1ccc(NC(=O)Cn2cccc2-c2nnc(-c3ccccc3)o2)cc1 | s | 894 |
